Collected inhibition at 0.1 µM values appear next to each entry.
Biological target: E. coli Gyrase (Escherichia coli, UniProt P0AES4+P0AES6)
Construct: purchased Inspiralis
Test: in vitro Gyrase supercoiling assay (Inspiralis kit)
Assay type: biochemical
Settings: 0.1 μM compound; 1 hour at 37° C.; read-out: % inhibition of DNA supercoiling activity
State just the number; it will be interpreted in %.

>>> assay_value("COc1ccc2ncc(=O)n(CCN3CCC(NCc4csc([N+](=O)[O-])c4)CC3)c2c1")
61.4
>>> assay_value("COc1ccc2ncc(=O)n(CCN3CCC(NCc4ccc(Br)c([N+](=O)[O-])c4)CC3)c2c1")
55.9

Attention now shifts to the item below.
Ask: Give inhibition at 0.1 µM (E. coli Gyrase (Escherichia coli, UniProt P0AES4+P0AES6)) of the following molecule: COc1ccc2ncc(C#N)c(CCN3CCC(NCc4ccc(C)c([N+](=O)[O-])c4)CC3)c2c1
Result: 99.8
